Target: T1, Z-Phe-Arg-MCA
T1 chain: FR
endpoint-label: Km (µM)
Please give a number only; it is taken to be in µM.

Answered examples (2):
protein: porcine EP serine protease domain (Ile800 to His1034) (protein) IVGGNDSREGAWPWVVALYYNGQLLCGASLVSRDWLVSAAHCVYGRNLEPSKWKAILGLHMTSNLTSPQIVTRLIDEIVINPHYNRRRKDSDIAMMHLEFKVNYTDYIQPICLPEENQVFPPGRICSIAGWGKVIYQGSPADILQEADVPLLSNEKCQQQMPEYNITENMMCAGYEEGGIDSCQGDSGGPLMCLENNRWLLAGVTSFGYQCALPNRPGVYARVPKFTEWIQSFLH
unit-info: µM
Km: 200
//
protein: Bovine EP serine protease (New England Biolabs) (protein) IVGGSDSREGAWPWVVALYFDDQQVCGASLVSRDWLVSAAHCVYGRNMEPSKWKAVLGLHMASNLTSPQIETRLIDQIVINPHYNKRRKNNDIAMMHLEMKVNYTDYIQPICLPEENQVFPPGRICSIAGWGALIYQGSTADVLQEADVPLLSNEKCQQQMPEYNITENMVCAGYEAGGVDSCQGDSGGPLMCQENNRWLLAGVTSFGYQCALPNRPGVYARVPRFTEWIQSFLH
unit-info: µM
Km: 400

// switching to the query protein
Need Km of Medaka EP-1 serine protease domain mutant K63R (protein) VVGGVNAEKGAWPWMVSLHWRGRHGCGASLIGRDWLLTAAHCVYGRNTHLQYWSAVLGLHAQSSMNSQEVQIRQVDRIIINKNYNRRTKEADIAMMHLQQPVNFTEWVLPVCLASEDQHFPAGRRCFIAGWGRDAEGGSLPDILQEAEVPLVDQDECQRLLPEYTFTSSMLCAGYPEGGVDSCQGDSGGPLMCLEDARWTLIGVTSFGVGCGRPERPGAYARVSAFTSWIAETRRSSFSDLD , thanks.
100
